Property: inhibition; scope: individual compounds
# TARGET_ENTITY: 3-keto-steroid reductase/17-beta-hydroxysteroid dehydrogenase 7 (Homo sapiens) (UniProt P56937)
# RUN_PARAMETERS: HEK293, at 0.3 µM
# Description: Inhibition of human 17beta-HSD7 expressed in HEK293 cells assessed as inhibition of reduction of [14C]estrone into [14C]estradiol at 0.3 uM after 7 hrs
Just the number please, in %, no unit attached.

These recorded examples may help you get a feel for the data.
CCCCCCCCCCN(C(=O)c1ccc(Cl)cc1)[C@H]1CC[C@H]2[C@@H]3CC[C@H]4N(C)C(=O)CC[C@]4(C)[C@H]3CC[C@]12C = 58
CC(=O)[C@H]1CC[C@H]2[C@@H]3CCC4=CC(=O)CC[C@]4(C)[C@H]3CC[C@]12C = 7.3
CC1=C(c2ccc(O)cc2)[C@H](c2ccc(OCCN3CCCCC3)cc2)Oc2cc(O)ccc21 = 3.1

I am curious: what inhibition value has been reported for `CC(C)(C#N)c1cc(Cn2cncn2)cc(C(C)(C)C#N)c1` ? 6.5

Item `CN1C(=O)CC[C@]2(C)[C@H]3CC[C@]4(C)[C@@H](N5CCCC5=O)CC[C@H]4[C@@H]3CC[C@@H]12` has what recorded inhibition? 15.3

Quick one: inhibition for `C[C@]12CC[C@H]3C(=CCc4cc(O)ccc43)[C@@H]1CC[C@@H]2O` ? 12.6

// query inhibition value for entry `CC/C(=C(\c1ccccc1)c1ccc(OCCN(C)C)cc1)c1ccccc1` 8.9

###

# TARGET_ENTITY: 3-keto-steroid reductase/17-beta-hydroxysteroid dehydrogenase 7 (Homo sapiens)
# RUN_PARAMETERS: HEK293, at 3 µM
# Description: Inhibition of human 17beta-HSD7 expressed in HEK293 cells assessed as inhibition of reduction of [14C]estrone into [14C]estradiol at 3 uM after 7 hrs
MEASUREMENT_NAME: inhibition (%)
Number in %, nothing else.

C[C@]12CC[C@@H]3c4ccc(O)cc4CC[C@H]3[C@@H]1CC[C@@]21CCCC(=O)O1 = 13.8
CC(C)C(=O)N(c1ccc([N+](=O)[O-])c(C(F)(F)F)c1)[C@H]1CC[C@H]2[C@@H]3CC[C@H]4N(C)C(=O)CC[C@]4(C)[C@H]3CC[C@]12C = 71.3
CC1CC(=O)O[C@]2(CC[C@H]3[C@@H]4CCc5cc(O)ccc5[C@H]4CC[C@@]32C)C1 (some centres undefined) = 22.9

Could you now consider this next compound?
Recorded inhibition for `C[C@]12CC[C@@H](O)C[C@@H]1CC[C@@H]1[C@@H]2CC[C@]2(C)[C@@H](O)CC[C@@H]12` with 3-keto-steroid reductase/17-beta-hydroxysteroid dehydrogenase 7 (Homo sapiens), please? 8.4

###

Form field: inhibition (one value per entry).
# TARGET_ENTITY: 3-keto-steroid reductase/17-beta-hydroxysteroid dehydrogenase 7 (Homo sapiens) (UniProt P56937)
# RUN_PARAMETERS: HEK293, at 0.3 µM
Please reply with the bare figure in % and do not write the unit itself.

CCCNC(=O)N(C1CC1)[C@H]1CC[C@H]2[C@@H]3CC[C@H]4N(C)C(=O)CC[C@]4(C)[C@H]3CC[C@]12C = 12.9
CN1C(=O)CC[C@]2(C)[C@H]3CC[C@]4(C)[C@@H](N(C=O)Cc5ccccc5)CC[C@H]4[C@@H]3CC[C@@H]12 = 31.6
CCCCCCCCCCN(C(=O)c1ccc(F)cc1)[C@H]1CC[C@H]2[C@@H]3CC[C@H]4N(C)C(=O)CC[C@]4(C)[C@H]3CC[C@]12C = 71

I'd like to know its inhibition. The compound in question is `CCCCCCCN(CC1CCCCC1)[C@H]1CC[C@H]2[C@@H]3CC[C@H]4N(C)C(=O)CC[C@]4(C)[C@H]3CC[C@]12C` 45

###

# TARGET_ENTITY: 3-keto-steroid reductase/17-beta-hydroxysteroid dehydrogenase 7 (Homo sapiens)
# Sequence (whole entry): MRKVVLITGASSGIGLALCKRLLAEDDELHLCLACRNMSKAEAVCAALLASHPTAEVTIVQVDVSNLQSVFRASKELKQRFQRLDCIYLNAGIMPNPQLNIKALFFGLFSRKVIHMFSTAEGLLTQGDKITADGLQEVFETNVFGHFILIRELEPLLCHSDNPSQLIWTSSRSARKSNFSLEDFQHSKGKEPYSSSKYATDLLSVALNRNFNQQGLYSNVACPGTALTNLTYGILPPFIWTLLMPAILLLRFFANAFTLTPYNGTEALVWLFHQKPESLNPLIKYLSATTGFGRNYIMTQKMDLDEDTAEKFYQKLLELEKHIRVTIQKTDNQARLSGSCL
# RUN_PARAMETERS: HEK293, at 0.3 µM
The entries below come with measured inhibition values attached.
Write the value in % as a bare number.

Sample records with inhibition:
CCCCCCCCCCN(C(=O)c1c(Cl)cccc1Cl)[C@H]1CC[C@H]2[C@@H]3CC[C@H]4N(C)C(=O)CC[C@]4(C)[C@H]3CC[C@]12C = 36
CCCCN(C)C(=O)C[C@@H]1Cc2cc(O)ccc2[C@H]2CC[C@@]3(C)[C@@H](CC[C@@]34CCC(=O)O4)[C@H]12 = 17.1
CCCCCCCCCCN(C(=O)c1ccc(C(C)(C)C)cc1)[C@H]1CC[C@H]2[C@@H]3CC[C@H]4N(C)C(=O)CC[C@]4(C)[C@H]3CC[C@]12C = 4
CCCNC(=O)N(C1CC1)[C@H]1CC[C@H]2[C@@H]3CC[C@H]4N(C)C(=O)C=C[C@]4(C)[C@H]3CC[C@]12C = 7.8
CC(=O)S[C@@H]1CC2=CC(=O)CC[C@]2(C)[C@H]2CC[C@@]3(C)[C@@H](CC[C@@]34CCC(=O)O4)[C@H]12 = 7.2

Field request: inhibition | item: `COCCOc1ccc2c(c1)CC[C@@H]1[C@@H]2CC[C@@]2(C)[C@H]1CC[C@@]21CCC(C)(C)C(=O)O1` 23.8

# inhibition lookup, item `CN(C=O)[C@H]1CC[C@H]2[C@@H]3CC[C@H]4N(C)C(=O)CC[C@]4(C)[C@H]3CC[C@]12C` 14.5

inhibition lookup needed for `C[C@]12CCC(=O)C=C1CC[C@@H]1[C@@H]2CC[C@@]2(C)[C@H]1CC[C@]2(O)C(=O)CO` , thanks. 9.8

For the molecule shown here, `CCCCCCCCCCCCN(C(=O)c1ccc(F)cc1)[C@H]1CC[C@H]2[C@@H]3CC[C@H]4N(C)C(=O)CC[C@]4(C)[C@H]3CC[C@]12C` , give the reported inhibition. 47

Find the recorded inhibition belonging to `CC1(C)CC[C@@]2(CC[C@H]3[C@@H]4CCc5cc(C#N)ccc5[C@H]4CC[C@@]32C)OC1=O` and report it. 23.8

###

# Lookup of reported inhibition keyed by entry
# TARGET_ENTITY: 3-keto-steroid reductase/17-beta-hydroxysteroid dehydrogenase 7 (Homo sapiens)
# RUN_PARAMETERS: HEK293, at 0.3 µM
Give the quantity in %, number only.

Some compounds with recorded inhibition:
CCCCCCCCCCN(C(=O)c1cc(F)cc(F)c1)[C@H]1CC[C@H]2[C@@H]3CC[C@H]4N(C)C(=O)CC[C@]4(C)[C@H]3CC[C@]12C = 38
CC1(C)CC[C@@]2(CC[C@H]3[C@@H]4CCc5cc(C(=O)Oc6ccccc6)ccc5[C@H]4CC[C@@]32C)OC1=O = 14
CCCCCCCCCCCCN(C(=O)c1ccc(Cl)cc1)[C@H]1CC[C@H]2[C@@H]3CC[C@H]4N(C)C(=O)CC[C@]4(C)[C@H]3CC[C@]12C = 40
CCCCCCCc1ccc(C(=O)N(CCCCCCC)[C@H]2CC[C@H]3[C@@H]4CC[C@H]5N(C)C(=O)CC[C@]5(C)[C@H]4CC[C@]23C)cc1 = 24

// query inhibition value for entry `C#C[C@]1(O)CC[C@H]2[C@@H]3CCc4cc(O)ccc4[C@H]3CC[C@@]21C` 8.3

// returns reported inhibition for input `CN1C(=O)CC[C@]2(C)[C@H]3CC[C@]4(C)[C@@H](N(C=O)C5CCCCC5)CC[C@H]4[C@@H]3CC[C@@H]12` 23.9

Tell me the measured inhibition of `CCCCCCCN(C(=O)c1c(F)c(F)c(F)c(F)c1F)[C@H]1CC[C@H]2[C@@H]3CC[C@H]4N(C)C(=O)CC[C@]4(C)[C@H]3CC[C@]12C` , please. 67

Can you share its inhibition? I mean this compound: `CCCCCN(C(=O)CCCC)[C@H]1CC[C@H]2[C@@H]3CC[C@H]4N(C)C(=O)CC[C@]4(C)[C@H]3CC[C@]12C` 27.3

What inhibition value was documented for this compound, `CC1(C)CC[C@@]2(CC[C@H]3[C@@H]4CCc5c(cc(Cl)c(O)c5Cl)[C@H]4CC[C@@]32C)OC1=O` ? 20.2

Given the compound `COC(=O)c1cc2c(cc1O)CC[C@@H]1[C@@H]2CC[C@@]2(C)[C@H]1CC[C@@]21CCC(C)(C)C(=O)O1` , what is its reported inhibition? 21.1

###

Quick reference: inhibition of the listed items.
# TARGET_ENTITY: 3-keto-steroid reductase/17-beta-hydroxysteroid dehydrogenase 7 (Homo sapiens)
# RUN_PARAMETERS: HEK293, at 3 µM
Quick note: give the figure in %, leave out the unit.

Below, each entry is followed by its recorded inhibition result.
CCCCCCN(C=O)[C@H]1CC[C@H]2[C@@H]3CC[C@H]4N(C)C(=O)CC[C@]4(C)[C@H]3CC[C@]12C = 100
C[C@]12CCC(=O)C=C1CC[C@@H]1[C@@H]2[C@@H](O)C[C@@]2(C)[C@H]1CC[C@]2(O)C(=O)CO = 10.3

Fill in: inhibition of `COCCOc1ccc2c(c1)CC[C@@H]1[C@@H]2CC[C@@]2(C)[C@H]1CC[C@@]21CCC(C)(C)C(=O)O1` is ___ 52.3

Consider the molecule `C[C@]12CCC(=O)C=C1CC[C@@H]1[C@@H]2CC[C@@]2(C)[C@H]1CC[C@]2(O)C(=O)CO` and give its measured inhibition. 0
